test target: recombinant RHOA^WT (human, UniProt P61586 1-193)
Sequence (P61586 whole entry): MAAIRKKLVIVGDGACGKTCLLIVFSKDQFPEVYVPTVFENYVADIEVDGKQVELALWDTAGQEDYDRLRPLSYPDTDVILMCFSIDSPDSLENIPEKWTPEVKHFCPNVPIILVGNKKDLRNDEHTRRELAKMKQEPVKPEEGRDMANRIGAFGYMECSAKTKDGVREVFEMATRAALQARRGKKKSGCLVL
experiment notes: other fluorescence titration
measure name: pKd
Friendly reminder that pKd comes from taking -log10 of the concentration in mol/L.

**Q:** Supply pKd value. Item: GST-Rhotekin-RBD (domain or fragment, mouse, UniProt Q8C6B2-2 7-89, looked up) ILEDLNMLYIRQMALSLEDTELQRKLDHEIRMRDGACKLLAACSQREQALEATKSLLVCNSRILSYMGELQRRKEAQVLEKTG
**A:** 6.59

Attribution: paper PMC10791543
